Origin of values: PubChem BioAssay AID248

Task for the reader: assign each of the following compounds its reported T/C.
Tested on: L1210 leukemia ip in BDF1 mice, survival T/C
Test: NCI In Vivo Anticancer Drug Screen. Data for tumor model L1210 Leukemia (intraperitoneal) in B6D2F1 (BDF1) mice
Details: endpoint: mean survival time; dose: 100.0 mg/kg/injection; schedule: Q01DX009 (ip); vehicle: saline; higher = longer survival
Procedure: The antitumor activity of compounds was measured in mice bearing transplantable tumors. Survival or tumor size were measured and the results are expressed as the measurement made in the treated group (T) divided by the measurement made in the vehicle treated control group (C). The tumor model used in this assay is L1210 Leukemia (intraperitoneal) in B6D2F1 (BDF1) mice
Inconclusive results and toxic doses are left out.

[ask] Give the measured T/C for CCOC(=O)c1ccc(OC(=O)Nc2ccc(Cl)cc2OC)cc1
[reply] 87 % of control

[ask] // Input: O=C1c2ccccc2CCC12OC2c1ccc(Cl)cc1 (stereo unspecified) . Output its T/C only.
[reply] 107 % of control

[ask] Specify reported T/C for the compound shown: CCN(C)O
[reply] 109 % of control

[ask] Specify measured T/C for Nc1ncnn1C(=O)NCCCl .
[reply] 94 % of control

[ask] Return reported T/C. Input compound: CSCCC(NC(C)=O)C(=O)NNC(C)C (stereo unspecified)
[reply] 92 % of control

[ask] Identify the reported T/C for the following entry. O=C(NC(=S)c1ccc[nH]1)Nc1ccccc1
[reply] 90 % of control

[ask] // Input: CC1(C)OCC(=NNC(N)=O)CO1 . Output its T/C only.
[reply] 93 % of control

[ask] # return recorded T/C for entry Nc1ncnc(N)c1N=O
[reply] 91 % of control

[ask] Give reported T/C value for O=C(c1ccccc1)N1CCCCC1
[reply] 95 % of control

[ask] Please indicate T/C recorded for CC(C)(CNC1=NCCO1)NC1=NCCO1
[reply] 107 % of control

[ask] Item CCN(CC)CCOC(=O)CSC1C2CC3C(C2)C31 (stereo unspecified) : provide T/C
[reply] 90 % of control

[ask] Tell me T/C reported for Nc1ccnnc1
[reply] 101 % of control

[ask] Given the compound O=C1CCCC1CN1CCOCC1 (stereo unspecified) , write its reported T/C.
[reply] 92 % of control

[ask] Fill in T/C for record CSCCO
[reply] 89 % of control

[ask] // fetch T/C given entry Nc1ccc(C(=O)Nc2ccc(N(CCCl)CCCl)cc2)cc1
[reply] 114 % of control

[ask] Input C(=C\c1ccnc2ccccc12)/c1ccccc1 , output reported T/C.
[reply] 101 % of control

[ask] Kindly indicate its recorded T/C. Item: COc1cc2ccc3cc[n+](C)cc3c2cc1OC
[reply] 110 % of control

[ask] Give reported T/C value for CN(C)C(=O)NNC(=O)N(C)C
[reply] 103 % of control

[ask] Input CC(=O)Nc1ccc(S(=O)(=O)Oc2ccc([N+](=O)[O-])cc2)cc1 , output reported T/C.
[reply] 94 % of control

[ask] Give a short answer stating reported T/C for COC1CCS(=O)(=O)C1 (stereo unspecified) .
[reply] 97 % of control

[ask] Give T/C for the following compound: O=C1C2C(C(=O)N1c1ccc([N+](=O)[O-])cc1)C1c3ccccc3C2C2CCCCN21 (stereo unspecified)
[reply] 92 % of control

[ask] Consider the compound CN(C)CCC(c1ccccc1)c1cc(Cl)ccn1 (stereo unspecified) . State its measured T/C.
[reply] 100 % of control

[ask] Look up and report measured T/C for this entry: COc1cc2c(cc1OC)C1c3cc(OC)c(OC)cc3CC(=O)N1CC2 (stereo unspecified)
[reply] 104 % of control

[ask] Look up T/C of O=C1CCC2(CCC(=O)O2)O1 and report it.
[reply] 100 % of control

[ask] Read off the recorded T/C for COC1N(C2CC(O)C(CO)O2)C(=O)NC(=O)C1(F)Br (stereo unspecified)
[reply] 98 % of control

[ask] Hello, please tell me recorded T/C for this one: CCOC(=O)CC(N)C(=O)OCC (stereo unspecified)
[reply] 98 % of control

[ask] Give the value of T/C reported for the following: CC(=O)NC(CO)(CO)CO
[reply] 94 % of control

[ask] Supply recorded T/C for C/C=C\C#N here.
[reply] 106 % of control

[ask] Identify measured T/C corresponding to CN(C)CCOCCOC(=O)N1c2ccccc2Sc2ccccc21
[reply] 103 % of control

[ask] Please indicate T/C recorded for N#CC(Nc1ccccc1C(N)=O)c1ccccc1 (stereo unspecified)
[reply] 95 % of control

[ask] Provide only the value of recorded T/C for CN(C)C(=O)CCl
[reply] 96 % of control
